# System: Mus musculus
# Protocol text: Neurotoxicity against Mus musculus albino (mouse) at 3 mg/kg, ip after 30 min by rotarod test
# Format: toxicity, organism-based
# Set-up: dose 3 mg/kg, route intraperitoneal
# Experimental parameters: in vivo, 0.5 h
Parameter: Activity

// below: answered molecules
Molecule	Assay value
CN1C(=S)N(c2ccccc2)NC(=O)c2ccccc21	Non-toxic
CN1c2ccccc2C(=O)NN(c2ccccc2)C1c1ccc(Br)cc1 (configuration not stated)	Toxic
CN1CN(c2ccccc2)NC(=O)c2ccccc21	Toxic
CN1c2ccccc2C(=O)NN(c2ccccc2)C1c1ccccc1[N+](=O)[O-] (configuration not stated)	Toxic
CN1c2ccccc2C(=O)NN(c2ccccc2)C1c1ccc(Cl)cc1 (configuration not stated)	Toxic

For each of the molecules below, note its Activity.
1. COc1cc(C2N(C)c3ccccc3C(=O)NN2c2ccccc2)cc(OC)c1OC (configuration not stated)
2. CN1CN(C(=O)c2ccncc2)NC(=O)c2ccccc21
3. CN1CCN(C2=Nc3cc(Cl)ccc3Nc3ccccc32)CC1
4. COc1ccc(C2N(C)c3ccccc3C(=O)NN2c2ccccc2)cc1 (configuration not stated)
5. CN1c2ccccc2C(=O)NN(c2ccccc2)C1c1ccc(O)cc1 (configuration not stated)
6. CN1c2ccccc2C(=O)NN(c2ccccc2)C1c1ccccc1 (configuration not stated)

Marked response:
Non-toxic
Toxic
Toxic
Toxic
Toxic
Non-toxic

Exam item: Can you share its Activity? I mean this molecule: CN1c2ccccc2C(=O)NN(c2ccccc2)C1c1ccc([N+](=O)[O-])cc1 (configuration not stated)
Marked response: Non-toxic

Data credit: ChEMBL document CHEMBL3045310
